# Ki values compiled below
# system: Cathepsin K (Homo sapiens, UniProt P43235)
# Sequence (P43235 115-329, species assumed): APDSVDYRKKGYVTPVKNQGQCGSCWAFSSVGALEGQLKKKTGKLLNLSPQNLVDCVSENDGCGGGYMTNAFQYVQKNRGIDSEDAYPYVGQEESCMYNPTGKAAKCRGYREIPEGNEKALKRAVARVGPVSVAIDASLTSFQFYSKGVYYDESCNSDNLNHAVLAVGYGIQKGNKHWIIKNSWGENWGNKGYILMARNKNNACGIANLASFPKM

{"compound": "Cc1cccc(S(=O)(=O)N[C@@H](CC2CCCCC2)C(=O)N[C@@H](C)CN2CCc3cc(F)ccc32)c1", "system": "Cathepsin K (Homo sapiens, UniProt P43235)", "result_type": "Ki", "measured_result": "> 10 µM"}

Tested system Cathepsin K (Homo sapiens, UniProt P43235); Ki recorded for Cn1nc(C(F)(F)F)cc1-c1ccc(S(=O)(=O)N[C@@H](CC2CCCCC2)C(=O)NCCN2CCc3cc(F)ccc32)s1 was > 10 µM

Tested system Cathepsin K (Homo sapiens, UniProt P43235); Ki recorded for Cc1ccccc1C(C)C(=O)N[C@@H](CC1CCCCC1)C(=O)NCCN1CCc2cc(F)ccc21 (stereo partly shown) was > 10 µM

Tested system Cathepsin K (Homo sapiens, UniProt P43235); Ki recorded for Cc1cccc(C(=O)N[C@@H](CC2CCCC2)C(=O)NCCN2CCc3cc(F)ccc32)c1 was < 10 µM

src = patent US20040248887A1
